Values compiled from patent US20250388666A1.

Target: T1, CEACAM1 (Sino Biological) (human, UniProt P13688 35-428, limits assumed)
T1 construct: may be the same as CEACAM1-HIS; also called hCEACAM1; biotinylated soluble CEACAM1
T1 sequence: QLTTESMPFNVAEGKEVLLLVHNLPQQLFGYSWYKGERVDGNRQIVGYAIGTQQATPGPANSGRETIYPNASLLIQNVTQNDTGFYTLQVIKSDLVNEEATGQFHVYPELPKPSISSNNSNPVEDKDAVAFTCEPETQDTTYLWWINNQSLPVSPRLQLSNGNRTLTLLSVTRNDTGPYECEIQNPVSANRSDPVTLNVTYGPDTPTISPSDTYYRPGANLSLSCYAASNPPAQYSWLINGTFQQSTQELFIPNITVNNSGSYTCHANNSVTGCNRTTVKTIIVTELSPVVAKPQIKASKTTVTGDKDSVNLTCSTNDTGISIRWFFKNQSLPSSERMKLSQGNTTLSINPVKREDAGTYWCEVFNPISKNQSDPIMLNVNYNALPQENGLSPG
Assay: SPR multi-cycle, IgG on Protein A
Exercise: state measured koff for each of the binders provided.
Write the answer as a number in s⁻¹, unit excluded.

Quick check: koff of He9/L3 (antibody, IgG4, V domains shown, IgG4 S241P, kappa; also called He9 / 3) VH: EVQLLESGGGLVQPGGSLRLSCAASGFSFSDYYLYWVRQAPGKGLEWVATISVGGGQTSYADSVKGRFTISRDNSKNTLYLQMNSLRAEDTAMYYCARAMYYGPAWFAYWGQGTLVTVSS VL: DIVMTQSPDSLAVSLGERATINCKSSQSLLNSANQKNYLAWYQQKPGQPPKLLIYFASTRESGVPDRFSGSGSGTDFTLTISSLQAEDVAVYYCQSHFPFPFTFGGGTKVEIK ?
0.00139

What about Parent VH/L1 (antibody, IgG4, V domains shown, IgG4 S241P, kappa; also called VHp/L1; VH2 N56Q / 1) VH: EVQLLESGGGLVQPGGSLRLSCAASGFSFSDYYLYWVRQAPGKGLEWVATISVGGGQTSYADSVKGRFTISRDNSKNTLYLQMNSLRAEDTAMYYCTRGLYYGPAWFAYWGQGTLVTVSS VL: DIVMTQSPDSLAVSLGERATINCKSSQSLLNSANQKNYLAWYQQKPGQPPKLLIYFASTRESGVPDRFSGSGSGTDFTLTISSLQAEDVAVYYCQSHYPFYYTFGGGTKVEIK ?
0.00413

What about Parent VH/L4#2 (antibody, IgG4, V domains shown, IgG4 S241P, kappa; also called VHp/L4 #2; VH2 N56Q / 4#2) VH: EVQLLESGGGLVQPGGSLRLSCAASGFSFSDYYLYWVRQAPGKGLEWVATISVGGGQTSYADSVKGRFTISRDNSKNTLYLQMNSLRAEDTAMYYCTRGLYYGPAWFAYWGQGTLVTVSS VL: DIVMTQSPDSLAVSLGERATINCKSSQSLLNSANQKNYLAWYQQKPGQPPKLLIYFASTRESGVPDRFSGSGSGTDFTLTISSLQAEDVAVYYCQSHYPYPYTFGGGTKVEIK ?
0.00437
